Test system: HDF
methodDescription: Cytoprotective activity in neonatal HDF assessed as reduction of BaP-induced tail moment at 10 uM after 24 hrs by comet assay
Type: functional
appliedConditions: Homo sapiens
Active and inactive are the calls of the source. The rule behind the calls is not given here.
Select the matching outcome among yes (1) = active, no (0) = inactive

Example results:
• CC(C)=CCC[C@](C)(O)[C@H]1CC[C@]2(C)[C@@H]1[C@H](O)C[C@@H]1[C@@]3(C)CC[C@H](O[C@@H]4O[C@H](CO)[C@@H](O)[C@H](O)[C@H]4O[C@@H]4O[C@H](CO)[C@@H](O)[C@H](O)[C@H]4O)C(C)(C)[C@@H]3CC[C@]12C = yes (1)
• CC(C)=CCC[C@@](C)(O)[C@H]1CC[C@]2(C)[C@@H]1[C@H](O)C[C@@H]1[C@@]3(C)CC[C@H](O[C@@H]4O[C@H](CO)[C@@H](O)[C@H](O)[C@H]4O[C@@H]4O[C@H](CO)[C@@H](O)[C@H](O)[C@H]4O)C(C)(C)[C@@H]3CC[C@]12C = no (0)
• CC(C)=CCC[C@](C)(O[C@@H]1O[C@H](CO)[C@@H](O)[C@H](O)[C@H]1O)[C@H]1CC[C@]2(C)[C@@H]1[C@H](O)C[C@@H]1[C@@]3(C)CC[C@H](O)C(C)(C)[C@@H]3[C@@H](O[C@@H]3O[C@H](CO)[C@@H](O)[C@H](O)[C@H]3O)C[C@]12C [GINSENOSIDE RG1] = no (0)

Here is the next item to consider.
Exam item: Just curious, what result did CC(C)=CCC[C@](C)(O[C@@H]1O[C@H](CO[C@@H]2O[C@H](CO)[C@@H](O)[C@H](O)[C@H]2O)[C@@H](O)[C@H](O)[C@H]1O)[C@H]1CC[C@]2(C)[C@@H]1[C@H](O)C[C@@H]1[C@@]3(C)CC[C@H](O[C@@H]4O[C@H](CO)[C@@H](O)[C@H](O)[C@H]4O[C@@H]4O[C@H](CO)[C@@H](O)[C@H](O)[C@H]4O)C(C)(C)[C@@H]3CC[C@]12C [GINSENOSIDE RB1] get here?
Marked response: no (0)

----------
Tested on: Plasma
methodDescription: Plasma concentration in human at 60 mg by HPLC-MS analysis
Type: ADME
parameterMeasured: concentration
State the value, then name its unit.

concentration reading for CC(C)=CCC[C@](C)(O)[C@H]1CC[C@]2(C)[C@@H]1[C@H](O)C[C@@H]1[C@@]3(C)CC[C@H](O[C@@H]4O[C@H](CO)[C@@H](O)[C@H](O)[C@H]4O[C@@H]4O[C@H](CO)[C@@H](O)[C@H](O)[C@H]4O)C(C)(C)[C@@H]3CC[C@]12C : 3 nM

----------
methodDescription: Cytoprotective activity in neonatal HDF assessed as reduction of BaP-induced DNA strand breakage by measuring tunnel positive cells at 10 uM after 24 hrs (reference value: 15.96%)
Assay type: functional, Homo sapiens
Design: scale not given: the % may be the effect or the level left
parameterMeasured: Activity (%)
One number for each entry, in %.

Recorded Activity, per entry:
* CC(C)=CCC[C@](C)(O)[C@H]1CC[C@]2(C)[C@@H]1[C@H](O)C[C@@H]1[C@@]3(C)CC[C@H](O[C@@H]4O[C@H](CO)[C@@H](O)[C@H](O)[C@H]4O[C@@H]4O[C@H](CO)[C@@H](O)[C@H](O)[C@H]4O)C(C)(C)[C@@H]3CC[C@]12C | 3.07
* CC(C)=CCC[C@](C)(O[C@@H]1O[C@H](CO[C@@H]2O[C@H](CO)[C@@H](O)[C@H](O)[C@H]2O)[C@@H](O)[C@H](O)[C@H]1O)[C@H]1CC[C@]2(C)[C@@H]1[C@H](O)C[C@@H]1[C@@]3(C)CC[C@H](O[C@@H]4O[C@H](CO)[C@@H](O)[C@H](O)[C@H]4O[C@@H]4O[C@H](CO)[C@@H](O)[C@H](O)[C@H]4O)C(C)(C)[C@@H]3CC[C@]12C [GINSENOSIDE RB1] | 9.77
* CC(C)=CCC[C@@](C)(O)[C@H]1CC[C@]2(C)[C@@H]1[C@H](O)C[C@@H]1[C@@]3(C)CC[C@H](O[C@@H]4O[C@H](CO)[C@@H](O)[C@H](O)[C@H]4O[C@@H]4O[C@H](CO)[C@@H](O)[C@H](O)[C@H]4O)C(C)(C)[C@@H]3CC[C@]12C | 12.76

We next turn to a different compound, shown below.
Activity reading for CC(C)=CCC[C@](C)(O[C@@H]1O[C@H](CO)[C@@H](O)[C@H](O)[C@H]1O)[C@H]1CC[C@]2(C)[C@@H]1[C@H](O)C[C@@H]1[C@@]3(C)CC[C@H](O)C(C)(C)[C@@H]3[C@@H](O[C@@H]3O[C@H](CO)[C@@H](O)[C@H](O)[C@H]3O)C[C@]12C [GINSENOSIDE RG1] : 20.97

----------
Test system: HDF
methodDescription: Cytoprotective activity in neonatal HDF assessed as reduction of BaP-induced cell death at 10 uM after 24 hrs by MTT assay
Assay type: functional
appliedConditions: Homo sapiens
Activity calls are given as the source filed them. The rule behind the calls is not given here.
Select the matching outcome among YES = active, NO = inactive

• CC(C)=CCC[C@](C)(O[C@@H]1O[C@H](CO[C@@H]2O[C@H](CO)[C@@H](O)[C@H](O)[C@H]2O)[C@@H](O)[C@H](O)[C@H]1O)[C@H]1CC[C@]2(C)[C@@H]1[C@H](O)C[C@@H]1[C@@]3(C)CC[C@H](O[C@@H]4O[C@H](CO)[C@@H](O)[C@H](O)[C@H]4O[C@@H]4O[C@H](CO)[C@@H](O)[C@H](O)[C@H]4O)C(C)(C)[C@@H]3CC[C@]12C [GINSENOSIDE RB1] = NO
• CC(C)=CCC[C@](C)(O[C@@H]1O[C@H](CO)[C@@H](O)[C@H](O)[C@H]1O)[C@H]1CC[C@]2(C)[C@@H]1[C@H](O)C[C@@H]1[C@@]3(C)CC[C@H](O)C(C)(C)[C@@H]3[C@@H](O[C@@H]3O[C@H](CO)[C@@H](O)[C@H](O)[C@H]3O)C[C@]12C [GINSENOSIDE RG1] = NO

Exam item: Just curious, what result did CC(C)=CCC[C@](C)(O)[C@H]1CC[C@]2(C)[C@@H]1[C@H](O)C[C@@H]1[C@@]3(C)CC[C@H](O[C@@H]4O[C@H](CO)[C@@H](O)[C@H](O)[C@H]4O[C@@H]4O[C@H](CO)[C@@H](O)[C@H](O)[C@H]4O)C(C)(C)[C@@H]3CC[C@]12C get here?
Marked response: YES

Exam item: Just curious, what result did CC(C)=CCC[C@@](C)(O)[C@H]1CC[C@]2(C)[C@@H]1[C@H](O)C[C@@H]1[C@@]3(C)CC[C@H](O[C@@H]4O[C@H](CO)[C@@H](O)[C@H](O)[C@H]4O[C@@H]4O[C@H](CO)[C@@H](O)[C@H](O)[C@H]4O)C(C)(C)[C@@H]3CC[C@]12C get here?
Marked response: NO

// data source = ChEMBL document CHEMBL3526152
